Biological target: PTBP1 (GST-SBP-PTBP1) (UniProt P26599-1 1-531)
Assay: fluorescence polarization
pKd: −log10 of the molar value.
Recorded Metric: pKd

- Binder: "CUCUCUCUCUCUCUCUC (ssRNA) [Fnbp1 intron oligo]"
  pKd: "~8.70"

IN: Please look up its pKd: AUCUCUUGAUGCUAUCC (ssRNA) [Capzb exon oligo]
OUT: ~8.22

IN: Please look up its pKd: CUUUCUCUCAAGCU (ssRNA) [Fnbp1 exon oligo]
OUT: ~8.10

IN: Please look up its pKd: CUCUCUGAACACUCUCU (ssRNA) [Capzb intron oligo]
OUT: ~8.52
